Target: Glucocorticoid receptor (Homo sapiens, UniProt P04150)
Sequence (P04150 whole entry): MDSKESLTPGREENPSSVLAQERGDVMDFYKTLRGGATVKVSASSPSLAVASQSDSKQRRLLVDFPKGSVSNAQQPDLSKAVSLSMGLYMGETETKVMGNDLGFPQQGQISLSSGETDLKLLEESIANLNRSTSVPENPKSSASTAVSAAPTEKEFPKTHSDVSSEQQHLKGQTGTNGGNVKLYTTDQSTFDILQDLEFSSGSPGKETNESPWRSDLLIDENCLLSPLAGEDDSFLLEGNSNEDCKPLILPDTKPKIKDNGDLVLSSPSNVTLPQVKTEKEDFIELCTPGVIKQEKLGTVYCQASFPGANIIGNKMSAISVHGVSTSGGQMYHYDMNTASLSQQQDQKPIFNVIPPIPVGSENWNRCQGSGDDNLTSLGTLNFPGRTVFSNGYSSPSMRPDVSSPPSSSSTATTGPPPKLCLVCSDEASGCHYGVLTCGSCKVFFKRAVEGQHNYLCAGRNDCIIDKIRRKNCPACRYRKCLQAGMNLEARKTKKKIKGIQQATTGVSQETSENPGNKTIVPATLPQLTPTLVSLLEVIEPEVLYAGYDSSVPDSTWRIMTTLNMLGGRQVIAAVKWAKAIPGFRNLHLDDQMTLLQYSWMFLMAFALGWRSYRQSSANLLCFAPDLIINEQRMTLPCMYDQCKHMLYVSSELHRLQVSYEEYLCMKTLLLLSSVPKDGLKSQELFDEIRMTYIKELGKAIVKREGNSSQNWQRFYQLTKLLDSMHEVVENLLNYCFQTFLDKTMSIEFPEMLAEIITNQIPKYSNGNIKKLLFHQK
Experiment: Effective concentration against glucocorticoid receptor in human lung A549 cells
pEC50: −log10 of the molar value.
Property label: pEC50

>  <Smiles entry>
N#Cc1cc(F)cc(-c2ccc3c(c2)C2(CCCCC2)C(S)=N3)c1

>  <Property label>
pEC50

>  <Result>
< 5.00

$$$$

###

Biological target: Progesterone receptor (Homo sapiens)
Sequence (P06401 whole entry): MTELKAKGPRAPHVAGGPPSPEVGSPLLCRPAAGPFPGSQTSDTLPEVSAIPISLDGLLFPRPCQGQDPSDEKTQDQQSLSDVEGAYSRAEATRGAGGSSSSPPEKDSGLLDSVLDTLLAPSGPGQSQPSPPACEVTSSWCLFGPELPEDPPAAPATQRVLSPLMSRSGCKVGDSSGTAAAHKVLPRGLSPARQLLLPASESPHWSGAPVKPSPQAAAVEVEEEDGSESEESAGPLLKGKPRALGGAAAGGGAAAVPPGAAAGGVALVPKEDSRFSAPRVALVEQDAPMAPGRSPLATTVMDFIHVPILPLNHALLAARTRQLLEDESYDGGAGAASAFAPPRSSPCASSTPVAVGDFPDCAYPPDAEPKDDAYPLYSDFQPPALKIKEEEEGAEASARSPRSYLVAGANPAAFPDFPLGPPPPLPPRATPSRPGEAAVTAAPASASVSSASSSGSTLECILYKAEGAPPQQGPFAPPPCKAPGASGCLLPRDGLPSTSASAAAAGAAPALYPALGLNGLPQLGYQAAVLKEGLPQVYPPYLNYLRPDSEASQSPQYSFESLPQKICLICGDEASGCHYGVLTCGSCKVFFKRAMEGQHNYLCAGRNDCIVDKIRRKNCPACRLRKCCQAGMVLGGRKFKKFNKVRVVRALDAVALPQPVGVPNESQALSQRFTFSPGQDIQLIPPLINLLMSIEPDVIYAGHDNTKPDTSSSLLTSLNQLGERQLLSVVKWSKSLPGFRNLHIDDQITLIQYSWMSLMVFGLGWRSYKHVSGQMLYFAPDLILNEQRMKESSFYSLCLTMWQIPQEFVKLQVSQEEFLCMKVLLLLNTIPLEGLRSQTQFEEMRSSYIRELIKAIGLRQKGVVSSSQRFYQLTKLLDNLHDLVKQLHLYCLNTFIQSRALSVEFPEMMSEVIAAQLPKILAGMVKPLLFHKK
Assay: Inhibition of 3 nM [3H]R5020 binding to progesterone receptor in human T47D cells
Property label: IC50 (nM)

>  <Smiles entry>
N#Cc1cc(F)cc(-c2ccc3c(c2)C2(CCCCC2)C(S)=N3)c1

>  <Property label>
IC50

>  <Readout number>
15.9

$$$$

###

Overview of recorded EC50 for various compounds
Biological target: Progesterone receptor (Homo sapiens)
Assay: Effective concentration of progesterone receptor agonist induction of alkaline phosphatase activity in human T47D breast carcinoma cells
Type: functional, cell-based

>  <Compound>
S=C1Nc2ccc(-c3cccc(Cl)c3)cc2C12CCCC2

>  <EC50>
9.8 nM

$$$$
>  <Compound>
CC1(C)C(=S)Nc2ccc(-c3cccc(Cl)c3)cc21

>  <EC50>
5 nM

$$$$
>  <Compound>
S=C1Nc2ccc(-c3ccc(Cl)cc3)cc2C12CCCCC2

>  <EC50>
2000 nM

$$$$
>  <Compound>
N#Cc1cccc(-c2ccc3c(c2)C2(CCCCC2)C(=S)N3)c1

>  <EC50>
2 nM

$$$$
>  <Compound>
SC1=Nc2ccc(-c3cccc(-c4ccccc4)c3)cc2C12CCCCC2

>  <EC50>
71.4 nM

$$$$
>  <Compound>
S=C1Nc2ccc(-c3ccccc3Cl)cc2C12CCCCC2

>  <EC50>
5.3 nM

$$$$
>  <Compound>
CC1(Cc2ccccc2)C(=S)Nc2ccc(-c3cccc(Cl)c3)cc21 (stereo unspecified)

>  <EC50>
1200 nM

$$$$
>  <Compound>
Cc1c(S)[nH]c2ccc(-c3cccc(Cl)c3)cc12

>  <EC50>
> 3000 nM

$$$$
>  <Compound>
Fc1cc(Cl)cc(-c2ccc3c(c2)C2(CCCCC2)C(=S)N3)c1

>  <EC50>
0.5 nM

$$$$
>  <Compound>
S=C1Nc2ccc(-c3cccc(Cl)c3)cc2C12CCC2

>  <EC50>
28.7 nM

$$$$
>  <Compound>
N#Cc1ccc(F)c(-c2ccc3c(c2)C2(CCCCC2)C(=S)N3)c1

>  <EC50>
1.4 nM

$$$$
>  <Compound>
N#Cc1cc(-c2ccc3c(c2)C2(CCCCC2)C(=S)N3)cs1

>  <EC50>
0.3 nM

$$$$
>  <Compound>
CCC1(CC)C(=S)Nc2ccc(-c3cccc(Cl)c3)cc21

>  <EC50>
200 nM

$$$$
>  <Compound>
Oc1cccc(-c2ccc3c(c2)C2(CCCCC2)C(S)=N3)c1

>  <EC50>
2.5 nM

$$$$
>  <Compound>
CCCCc1cc(C#N)sc1-c1ccc2c(c1)C1(CCCCC1)C(S)=N2

>  <EC50>
23.5 nM

$$$$
>  <Compound>
Fc1cccc(-c2ccc3c(c2)C2(CCCCC2)C(S)=N3)c1

>  <EC50>
1.6 nM

$$$$
>  <Compound>
Cc1cc(C#N)sc1-c1ccc2c(c1)C1(CCCCC1)C(=S)N2

>  <EC50>
0.5 nM

$$$$
>  <Compound>
CCCc1cc(C#N)sc1-c1ccc2c(c1)C1(CCCCC1)C(S)=N2

>  <EC50>
7.7 nM

$$$$
>  <Compound>
Fc1cc(F)cc(-c2ccc3c(c2)C2(CCCCC2)C(=S)N3)c1

>  <EC50>
0.8 nM

$$$$
>  <Compound>
Fc1ccc(-c2ccc3c(c2)C2(CCCCC2)C(S)=N3)cc1F

>  <EC50>
5.4 nM

$$$$
>  <Compound>
N#Cc1ccc(-c2ccc3c(c2)C2(CCCCC2)C(S)=N3)o1

>  <EC50>
1.9 nM

$$$$
>  <Compound>
N#Cc1cc(-c2ccc3c(c2)C2(CCCCC2)C(=S)N3)ccc1F

>  <EC50>
4.2 nM

$$$$
>  <Compound>
N#Cc1cc(-c2ccc3c(c2)C2(CCCCC2)C(=S)N3)co1

>  <EC50>
1.9 nM

$$$$
>  <Compound>
S=C1Nc2ccc(-c3ccc(Cl)s3)cc2C12CCCCC2

>  <EC50>
1.4 nM

$$$$
>  <Compound>
N#Cc1ccc(-c2ccc3c(c2)C2(CCCCC2)C(S)=N3)cc1F

>  <EC50>
14.8 nM

$$$$
>  <Compound>
S=C1Nc2ccc(-c3cccc(Cl)c3)cc2C12CCCCC2

>  <EC50>
1.6 nM

$$$$
>  <Compound>
N#Cc1cc(F)cc(-c2ccc3c(c2)C2(CCCCC2)C(S)=N3)c1

>  <EC50>
0.36 nM

$$$$
>  <Compound>
COc1cc(F)cc(-c2ccc3c(c2)C2(CCCCC2)C(=S)N3)c1

>  <EC50>
2.6 nM

$$$$
>  <Compound>
CN1C(=S)C2(CCCCC2)c2cc(-c3cccc(Cl)c3)ccc21

>  <EC50>
> 3000 nM

$$$$
>  <Compound>
Fc1ccc(-c2ccc3c(c2)C2(CCCCC2)C(S)=N3)cc1Cl

>  <EC50>
4.3 nM

$$$$
>  <Compound>
N#Cc1ccc(-c2ccc3c(c2)C2(CCCCC2)C(=S)N3)s1

>  <EC50>
1 nM

$$$$

Source: ChEMBL document CHEMBL1136687
